These entries and their values trace back to PubChem BioAssay (NCI).

Tested on: RXF 393 renal
Test Details: NCI tumour cell line growth inhibition, 48 h
Field: TGI. Provide a value for each of the compounds that follow.
Please respond with the number in µM and leave the unit unwritten.

# TGI of `COc1cc2c(cc1OCCCCOc1cc3c(cc1OC)C(=O)N1CCC[C@H]1C(=O)N3)N=C[C@@H]1CCCN1C2=O` = 14.8

# TGI of COc1ccc(C2C3CCc4ccccc4C3=NN2S(=O)(=O)c2ccc(/C=C/C(=O)O)cc2)cc1 (stereo not given) = 31.4

---

Field: TGI. Provide a value for each of the compounds that follow.
System: OVCAR-8 ovarian
Test Details: NCI tumour cell line growth inhibition, 48 h

# TGI of `O=C(NCCNCCCNC(=O)c1cc(-c2ccccc2)nc2ccccc12)c1cccc(OCc2ccccc2)c1OCc1ccccc1` = 3.15 µM

# TGI of c1ccc2c(c1)NC1(N3CCCCC3)CCCCC21 (stereo unspecified) = > 100 µM

# TGI of `OCCOc1ccccc2cccc1-2` = > 100 µM

# TGI of `CCOC(=O)c1[nH]cc(C)c1-c1ccc2c(-c3ccccc3)nc3ccccc3n12` = 16.7 µM

# TGI of `Oc1cc2ccccc2c(-c2c(O)c(O)cc3ccccc23)c1O` = > 24 µM

# TGI of `Ic1cc2c(cc1C1SCCCS1)OCO2` = > 100 µM

# TGI of `C[C@@H](NC(=O)c1ccc(CNC(=O)/C=C/c2cccc(Oc3ccccc3)c2)cc1)c1ccccc1` = > 100 µM

# TGI of O=C(O)c1ccc(C2SCc3nc4ccccc4n32)cc1 (stereo unspecified) = > 100 µM

# TGI of `O=C(COC(=O)c1cccc2c(=O)c3ccccc3[nH]c12)Nc1ccc(C(=O)O)cc1` = > 100 µM

# TGI of `O=C1c2cccc(NCCN=Cc3ccccc3O)c2C(=O)c2c(NCCN=Cc3ccccc3O)cccc21` = 2.47 µM

# TGI of `O=C(Nc1cccc2c1[nH]c1c(-c3ccccc3)nccc12)c1ccccc1[N+](=O)[O-]` = > 100 µM

---

Test system: OVCAR-4 ovarian
Test Details: NCI tumour cell line growth inhibition, 48 h
Field: TGI. Provide a value for each of the molecules that follow.

# TGI of `COc1cc(C(=O)N/N=C/c2ccc(N(C)C)cc2)cc(OC)c1OC` = > 100 µM

# TGI of `COc1cc(-c2[o+]c3cc(O)cc(O)c3cc2O)cc(O)c1O` = > 100 µM

# TGI of `COc1ccc(/C=C/C(=O)c2ccc(OC)c(OC)c2)cc1O` = 20.8 µM

# TGI of CC(=O)OC12c3ccccc3-c3ccccc3C1C1C(=O)OC(=O)C12 (stereo not drawn) = > 10 µM

# TGI of `COc1ccc(-n2ccnc2-c2cc(OC)c(OC)c(OC)c2)cc1` = 85.7 µM

# TGI of COC1(O)c2cccc(Cl)c2C(=O)N1C1(C(N)=O)CCCCC1 (stereo not drawn) = > 100 µM

# TGI of CC(=O)OC1COC(N2C(=O)C(=O)c3cc(Br)ccc32)C(OC(C)=O)C1OC(C)=O (stereo not drawn) = > 100 µM

# TGI of CCCCCCCCCCCCCCCCC(=O)O.CCCCCCCCCCCCCCCCCC(=O)O.CCCCCCCCCCCCCCCCCC(=O)O.CCCCCCCCCCCCCCCCCC(=O)O.CCCCCCCCCCCCCCCCCC(=O)O.CO[CH-]OC12COC1CC(O)C1(C)C(O)C(OC(C)O)C3=C(C)C(OC(=O)C(O)C([NH-])c4ccccc4)CC(O)(C(OC(=O)c4ccccc4)C21)C3(C)C.[Cu+].[Zn].[Zn].[Zn].[Zn].[Zn] (stereo not drawn) = 11.7 µM

---

Test system: UO-31 renal
Test Details: NCI tumour cell line growth inhibition, 48 h
Field: TGI. Provide a value for each of the compounds that follow.

# TGI of COc1ccc(C2C(C)C(=O)C(C)C(c3ccc(OC)cc3)N2N=O)cc1 (centres undefined) = > 1000 µM

# TGI of `O=C(NCCNCCCNC(=O)c1cc(-c2ccccc2)nc2ccccc12)c1cccc(OCc2ccccc2)c1OCc1ccccc1` = 3.03 µM

# TGI of `COc1cc(-c2cc(-c3cc(OC)c(OC)c(OC)c3)nc3nc(N)[nH]c(=O)c23)ccc1Oc1ccnc2cc(Cl)ccc12` = > 100 µM

# TGI of COC1OC(COC(=O)c2cc(O)c(O)c(O)c2)C(OC(=O)c2cc(O)c(O)c(O)c2)C(OC(=O)c2cc(O)c(O)c(O)c2)C1OC(=O)c1cc(O)c(O)c(O)c1 (centres undefined) = > 100 µM

# TGI of `Cc1ccc2nc(C=Nc3ccc(Cl)cc3)cc(C)c2c1` = 7.91 µM

# TGI of `Cc1ccc(NC(=O)c2sc3nc4c(cc3c2N)C(=O)CCC4)cc1C` = > 100 µM

# TGI of `COc1cc([C@@H]2c3cc4c(cc3[C@@H](Nc3ccc(C(=O)N[C@H]5CCc6cc(OC)c(OC)c(OC)c6-c6ccc(SC)c(=O)cc65)cc3)[C@H]3COC(=O)[C@H]23)OCO4)cc(OC)c1O` = 86.4 µM

# TGI of CC(=O)NC(Cc1ccsc1)C(=O)O (centres undefined) = > 100 µM

# TGI of CC(=O)Nc1ccc(COC(O)CN2CCCCC2)cc1[N+](=O)[O-] (centres undefined) = > 100 µM

# TGI of CC(=O)N1N=C2/C(=C/c3ccc(Cl)cc3)CC(C)CC2C1c1ccc(Cl)cc1 (centres undefined) = 30.5 µM

# TGI of CCCCCCCCC(=O)OCC(CS[As](C)C)OC(=O)CCCCCCCC (centres undefined) = > 39.9 µM

# TGI of `O=C(O)CCCc1ccc2ccccc2c1` = > 100 µM

# TGI of `CC(C)NC(=O)CCN(C(=O)O)S(=O)(=O)c1ccc(NC(=O)c2ccccc2)cc1` = > 100 µM

# TGI of COc1cc(C2C(Cl)C(=O)N2NC(=O)c2ccc(N)cc2)cc(Br)c1O (centres undefined) = 35.6 µM

# TGI of `O=C(c1ccc(Cl)cc1)N(C(=S)OCc1ccccn1)c1ccccc1` = > 100 µM

# TGI of `O=C(c1ccco1)c1c(C(F)(F)F)n([O-])c2ccc(Cl)cc2[n+]1=O` = 2.98 µM

# TGI of `O=C1C=CC(=O)c2c1ccc1c3ccccc3n(Cc3cccc([N+](=O)[O-])c3)c21` = > 100 µM

# TGI of `CN1CCC2(CC1)C(=NC1CCCCC1)NC(=S)N2c1ccccc1` = > 100 µM

# TGI of `COc1ccc(/C=C2\C=C(c3ccccc3)N(CCc3ccccc3)C2=O)cc1OC` = 20.6 µM

---

Test system: M14 melanoma
Test Details: NCI tumour cell line growth inhibition, 48 h; in the data active = GI50 below about 0.43 µM; inactive = the rest
Reply using exactly one outcome from yes = active, no = inactive

**Query** Tell me the recorded outcome of this test for `CN1C/C=C/CCOc2cccc(c2)-c2ccnc(n2)Nc2cccc(c2)C1` .
**Result** yes

**Query** Tell me the recorded outcome of this test for `COc1cc([C@@H]2C[C@H]2c2cc(SC)n[nH]2)cc(OC)c1OC` .
**Result** no

**Query** Tell me the recorded outcome of this test for `O=C(c1ccco1)c1c(C(F)(F)F)n([O-])c2ccc(Cl)cc2[n+]1=O` .
**Result** yes

**Query** Tell me the recorded outcome of this test for `Cc1ccc(Cl)c(Nc2ccccc2C(=O)O)c1Cl` .
**Result** no

**Query** Tell me the recorded outcome of this test for `C[C@@H](Oc1ccc(C(=O)NS(=O)(=O)C(C)(C)C)cc1C(F)(F)F)c1ccc(Oc2ccccc2)cn1` .
**Result** no

---

Test system: NCI-H522 lung
Test Details: NCI tumour cell line growth inhibition, 48 h
Field: GI50. Provide a value for each of the compounds that follow.

Simply: COc1ccc(C2C(C)C(=O)C(C)C(c3ccc(OC)cc3)N2N=O)cc1 (stereo not given) , NCI-H522 lung, GI50 = > 750000 nM

Simply: N#C[Se]CCCNS(=O)(=O)C1CC2C=CC1C2 (stereo not given) , NCI-H522 lung, GI50 = 1780 nM

Simply: `c1ccc2cc(C[n+]3ccn(CCCCCCCCCCn4cc[n+](Cc5ccc6ccccc6c5)c4)c3)ccc2c1` , NCI-H522 lung, GI50 = 436 nM

Simply: `Oc1cc2ccccc2c(-c2c(O)c(O)cc3ccccc23)c1O` , NCI-H522 lung, GI50 = 2310 nM

Simply: CCCCCCCCCCCCOC1C(CNC(=O)C2OC3OC(C)(C)OC3C2NC(=O)Nc2ccc(CC(=O)NC(Cc3ccccc3)C(=O)O)cc2)OC2OC(C)(C)OC21 (stereo not given) , NCI-H522 lung, GI50 = > 25000 nM
